target.or.test.system: mouse FAP (Mus musculus, UniProt P97321)
Sequence (P97321 26-761): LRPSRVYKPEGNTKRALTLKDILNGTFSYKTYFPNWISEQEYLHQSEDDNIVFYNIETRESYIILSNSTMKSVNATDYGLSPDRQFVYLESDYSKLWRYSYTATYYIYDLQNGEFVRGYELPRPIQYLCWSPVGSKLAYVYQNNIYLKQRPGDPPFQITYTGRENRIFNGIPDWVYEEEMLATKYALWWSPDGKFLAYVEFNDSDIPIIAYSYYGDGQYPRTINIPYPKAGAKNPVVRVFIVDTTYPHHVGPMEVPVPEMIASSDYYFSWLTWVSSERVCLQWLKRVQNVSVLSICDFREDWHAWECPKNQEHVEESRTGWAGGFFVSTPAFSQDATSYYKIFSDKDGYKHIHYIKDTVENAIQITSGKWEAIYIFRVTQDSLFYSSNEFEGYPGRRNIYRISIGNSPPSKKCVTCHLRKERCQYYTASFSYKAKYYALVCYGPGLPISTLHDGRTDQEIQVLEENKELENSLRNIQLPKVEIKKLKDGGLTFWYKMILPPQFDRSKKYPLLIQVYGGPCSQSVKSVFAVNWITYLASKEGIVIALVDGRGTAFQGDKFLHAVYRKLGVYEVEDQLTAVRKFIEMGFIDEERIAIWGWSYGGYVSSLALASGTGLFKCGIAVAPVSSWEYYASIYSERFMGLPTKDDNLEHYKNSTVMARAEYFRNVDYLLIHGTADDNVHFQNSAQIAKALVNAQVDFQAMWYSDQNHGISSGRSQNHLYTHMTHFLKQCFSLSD
Non-standard residues stand in square brackets, D forms with d. Residues, ends and D or L forms follow the SMILES beside them. NMeF = CN[C@@H](Cc1ccccc1)C(=O)O; Ahp(2) = CCCCC[C@H](N)C(=O)O; dPip = O=C(O)[C@H]1CCCCN1; Sar = CNCC(=O)O
Exercise: for every item that follows, state its recorded IC50.
Write it as a number; the unit nM goes unstated.

Task: # get_value(readout= IC50, system= mouse FAP (Mus musculus, UniProt P97321)) for CCCCC[C@@H]1NC(=O)[C@H](Cc2ccc(O)cc2)NC(=O)[C@H](Cc2ccccc2)N(C)C(=O)[C@@H](CO)NC(=O)CNC(=O)[C@H]2CCCN2C(=O)[C@H](CC(=O)O)NC(=O)[C@H](Cc2ccc(O)cc2)NC(=O)CNC(=O)[C@H](Cc2c[nH]c3ccccc23)NC1=O [Example A67] (cyclo([Ahp(2)]WGYD[dP]G[dS][NMeF]Y))
Result: 252

Task: Same for CCCCC[C@@H]1NC(=O)[C@H](Cc2ccc(O)cc2)NC(=O)[C@H](Cc2ccccc2)N(C)C(=O)CNC(=O)CN(C)C(=O)[C@H]2CCCN2C(=O)[C@H](CC(=O)O)NC(=O)[C@H](Cc2ccc(O)cc2)NC(=O)CNC(=O)[C@H](Cc2c[nH]c3ccccc23)NC1=O [Example A73] (cyclo([Ahp(2)]WGYD[dP][Sar]G[NMeF]Y))
Result: 0.101

Task: Same for CCCCC[C@@H]1NC(=O)[C@H](Cc2ccc(O)cc2)NC(=O)[C@H](Cc2ccccc2)N(C)C(=O)CNC(=O)CNC(=O)[C@H]2CCCCN2C(=O)[C@H](CC(=O)O)NC(=O)[C@H](Cc2ccc(O)cc2)NC(=O)CNC(=O)[C@H](Cc2c[nH]c3ccccc23)NC1=O [Example A66] (cyclo([Ahp(2)]WGYD[dPip]GG[NMeF]Y))
Result: 1.2
